Tested on: HCT-15 colon
ASSAY TEXT: NCI-60 one-dose screen, 48 h
EXPERIMENTAL CONDITIONS: 10 µM unless noted
This is part of a sample that, as a whole, favours compounds with a hit. Of some 83,000 tested, about 20% had one in any assay. Active and inactive are the calls of the source. The calls were made as follows: active = growth percent below 10; inactive = the rest.
Output constraint: value belongs to active, inactive

Incoming: I'd appreciate the recorded outcome for O=C1NC(=C(Cl)Cl)/C(=N/S(=O)(=O)N2CCCCC2CC2(C(F)(F)F)N=N2)N1 (centres undefined) from this test.
Outgoing: active

Incoming: I'd appreciate the recorded outcome for CNC(=O)c1cc(-c2ccc(NC(=O)Nc3ccc(N4CCN(C)CC4)c(C(F)(F)F)c3)cc2)nc2cccnc12 from this test.
Outgoing: active

Incoming: I'd appreciate the recorded outcome for OC1CCc2c(-c3ccc4ncnc(N5CCc6cc(F)c(Cl)cc65)c4c3)cncc21 (centres undefined) from this test.
Outgoing: inactive

Incoming: I'd appreciate the recorded outcome for c1ccc(CNc2ncnc3ccc(-c4cnc5[nH]ncc5c4)cc23)cc1 from this test.
Outgoing: inactive

----------
System: NCI/ADR-RES ovarian
ASSAY TEXT: NCI-60 one-dose screen, 48 h (100 = growth as untreated, 0 = no growth, -100 = all killed)
EXPERIMENTAL CONDITIONS: 10 µM unless noted
This is part of a sample that, as a whole, favours compounds with a hit. Of some 83,000 tested, about 20% had one in any assay.
READOUT KIND: growth (%)
Hi! Could you send only the number? It should be in %, unit omitted.

Incoming: Report measured growth; entry is CCCC(=O)NC(c1cccc(N(C)C)c1)c1cc(C)c2cccnc2c1O (stereo not drawn)
Outgoing: 22.6

Incoming: Report measured growth; entry is CC(C)NC(=O)c1cc(-c2ccc(NC(=O)Nc3ccc(N4CCOCC4)c(C(F)(F)F)c3)cc2)nc2cccnc12
Outgoing: 78.4

Incoming: Report measured growth; entry is CS(=O)(=O)c1ccc(-c2nc3ccccn3c2/C=N/Nc2nc(-c3ccc(Cl)cc3)cs2)cc1
Outgoing: 104

----------
Tested on: OVCAR-5 ovarian
ASSAY TEXT: NCI-60 one-dose screen, 48 h
EXPERIMENTAL CONDITIONS: 10 µM unless noted
Compounds without any hit were thinned out: in the full panel of roughly 83,000, 20% have a hit. Active and inactive are the calls of the source. Rule for the calls: active = growth percent below 10; inactive = the rest.
Output constraint: value belongs to active, inactive

Incoming: I'd appreciate the recorded outcome for Cc1cc2nc3c4cc(Cl)ccc4n(CC(=S)NCCN(C)C)c3nc2cc1C from this test.
Outgoing: active

Incoming: I'd appreciate the recorded outcome for COc1cc(-c2ccc3ncnc(NC(C)c4ccccc4)c3c2)cnc1OC (configuration not stated) from this test.
Outgoing: inactive

Incoming: I'd appreciate the recorded outcome for O=C(N/N=C/c1ccc([N+](=O)[O-])o1)c1[nH]c2ccc(Br)cc2c1-c1ccccc1 from this test.
Outgoing: inactive

Incoming: I'd appreciate the recorded outcome for C#C[C@]1(O)CC[C@H]2[C@@H]3CC=C4c5sc(-c6ccc(F)cn6)nc5CC[C@]4(C)[C@H]3CC[C@@]21C from this test.
Outgoing: inactive

Incoming: I'd appreciate the recorded outcome for N#Cc1nc(-c2ccccc2)oc1S(N)(=O)=O from this test.
Outgoing: inactive

Incoming: I'd appreciate the recorded outcome for O=C1c2c(c3c4cc(Br)ccc4[nH]c3c3ccc4ccccc4c23)C(=O)N1CCO from this test.
Outgoing: inactive

Incoming: I'd appreciate the recorded outcome for COc1ccccc1/C=C/C=N/NC1=NC2C(S1)N(C)C(=O)N2C (configuration not stated) from this test.
Outgoing: inactive

Incoming: I'd appreciate the recorded outcome for COC(=O)C(Cc1ccccc1)NS(=O)(=O)/N=C1\NC(=O)NC1=C(Cl)Cl (configuration not stated) from this test.
Outgoing: inactive

Incoming: I'd appreciate the recorded outcome for OC1CCN(CCCOc2c3ccc(Cl)cc3nc3c2oc2ccc(Cl)cc23)CC1 from this test.
Outgoing: active

Incoming: I'd appreciate the recorded outcome for O=C1C2=C(C(=O)c3c(O)cccc31)C(c1ccco1)c1sc(=O)[nH]c1S2 (configuration not stated) from this test.
Outgoing: inactive

Incoming: I'd appreciate the recorded outcome for CC(=O)Oc1ccccc1C(=O)Nc1ccc(C(=O)/C=C/c2cccs2)cc1 from this test.
Outgoing: inactive

Incoming: I'd appreciate the recorded outcome for COc1ccc(/C=N/NC(=O)c2[nH]c3ccc(Br)cc3c2-c2ccccc2)s1 from this test.
Outgoing: inactive

----------
Tested on: UACC-257 melanoma
ASSAY TEXT: NCI-60 one-dose screen, 48 h (100 = growth as untreated, 0 = no growth, -100 = all killed)
EXPERIMENTAL CONDITIONS: 10 µM unless noted
Compounds without any hit were thinned out: in the full panel of roughly 83,000, 20% have a hit.
For each of the compounds below, state its growth.
Hi! Could you send only the number? It should be in %, unit omitted.

Incoming: Report measured growth; entry is [Cl][Ru].c1ccc(-c2cc(-c3ccccn3)nc(-c3ccccn3)c2)cc1.c1ccc(-c2ccnc3c2ccc2c(-c4ccccc4)ccnc23)cc1
Outgoing: -28.7

Incoming: Report measured growth; entry is COc1ccc(C(=O)c2cc(C(=O)/C=C/c3c(Cl)cccc3Cl)c3cc(C)ccn23)cc1
Outgoing: 102

Incoming: Report measured growth; entry is O=C(CSc1nnc(-c2ccc3nc(-c4ccc(Cl)cc4)[nH]c3c2)o1)Nc1ccc(C(=O)/C=C/c2ccc(Cl)cc2)cc1
Outgoing: 107

Incoming: Report measured growth; entry is COC(=O)C1CCCN(S(=O)(=O)/N=C2\NC(=O)NC2=C(Cl)Cl)C1 (configuration not stated)
Outgoing: 106

Incoming: Report measured growth; entry is CC(C)(C)Nc1nc2c(OCCc3ccccc3)cccn2c1-c1ccc(O)cc1
Outgoing: 97.9

Incoming: Report measured growth; entry is COc1cccc(N2CCN(c3ncnc4c3[nH]c3ccc(F)cc34)C[C@@H]2C)c1
Outgoing: -27.6

Incoming: Report measured growth; entry is N/C(=N\c1nc2c(Br)cccc2s1)C(Br)Br
Outgoing: 51.4

----------
System: UACC-257 melanoma
ASSAY TEXT: NCI-60 one-dose screen, 48 h (100 = growth as untreated, 0 = no growth, -100 = all killed)
EXPERIMENTAL CONDITIONS: 10 µM unless noted
Compounds without any hit were thinned out: in the full panel of roughly 83,000, 20% have a hit.
READOUT KIND: growth (%)
Hi! Could you send only the number? It should be in %, unit omitted.

Incoming: Report measured growth; entry is OC1CCN(CCCOc2c3ccccc3nc3c2oc2ccccc23)CC1
Outgoing: -17.7

Incoming: Report measured growth; entry is COc1ccc(N/N=C/c2c(-c3ccc(S(C)(=O)=O)cc3)nc3ccccn23)cc1
Outgoing: 70.6

Incoming: Report measured growth; entry is COc1cccc(OC)c1-c1nnn(C)c1C(=S)N1CCN(c2ccc([N+](=O)[O-])cc2Cl)CC1
Outgoing: 108

Incoming: Report measured growth; entry is C#Cc1nc(C2=C(C)C(O)CC2)cs1 (stereo unspecified)
Outgoing: 102

Incoming: Report measured growth; entry is CNC(=O)c1cc(-c2ccc(NC(=O)Nc3ccc(N4CCN(C)CC4)c(C(F)(F)F)c3)cc2)nc2cccnc12
Outgoing: -94.3

Incoming: Report measured growth; entry is Cc1nc(-c2cc3ccccc3oc2=O)ccc1C(=O)/C=C/c1ccc(Cl)c(Cl)c1
Outgoing: 120

----------
Test system: COLO 205 colon
ASSAY TEXT: NCI-60 one-dose screen, 48 h (100 = growth as untreated, 0 = no growth, -100 = all killed)
EXPERIMENTAL CONDITIONS: 10 µM unless noted
The panel holds about 83,000 compounds, 20% with a hit somewhere; the sample as a whole holds those more often. Active and inactive are the calls of the source. How the source made its calls: active means growth percent below 10; inactive means the rest.
READOUT KIND: growth

Incoming: Report measured growth; entry is Fc1ccc(-c2cc3nc(C(Cl)Cl)nc(-c4ccccc4)n3n2)cc1
Outgoing: -72.5% (active)

Incoming: Report measured growth; entry is O=C(CSc1nnc(-c2ccc3nc(-c4ccc(Cl)cc4)[nH]c3c2)o1)Nc1ccc(C(=O)/C=C/c2ccc(Cl)cc2)cc1
Outgoing: 118% (inactive)

Incoming: Report measured growth; entry is O=C(N/N=C/c1ccc([N+](=O)[O-])s1)c1[nH]c2ccc(Br)cc2c1-c1ccccc1
Outgoing: -55.5% (active)

Incoming: Report measured growth; entry is COc1cc(/C=C/C(=O)c2ccc(F)cc2)ccc1Oc1nc(NCCO)nc(N2CCOCC2)n1
Outgoing: 122% (inactive)

Incoming: Report measured growth; entry is Nc1c(C(=O)Nc2ccc(C(F)(F)F)cc2)sc2nc(-c3cnccn3)cc(-c3cccs3)c12
Outgoing: 104% (inactive)

Incoming: Report measured growth; entry is O=C(CN1C(=O)/C(=C/c2ccccc2)SC1=S)N1CCOCC1
Outgoing: 116% (inactive)

Incoming: Report measured growth; entry is Cn1cc(-c2cc(N)n3nc(-c4cn(C)c5ccc(Cl)cc45)cc3n2)c2cc(Cl)ccc21
Outgoing: 119% (inactive)

Incoming: Report measured growth; entry is CCN(CC)c1ccc(C=O)c(OCc2cn(CC(=O)Nc3ccc(Cl)cc3)nn2)c1
Outgoing: 111% (inactive)

Incoming: Report measured growth; entry is COc1cc(/C=C/C(=O)c2cc(OC)c(OC)c(OC)c2)ccc1OCc1ccc(F)cc1
Outgoing: 70% (inactive)

Incoming: Report measured growth; entry is NS(=O)(=O)c1cccc(Nc2nc(SCC(=O)c3ccc(Br)cc3)nc3ccccc23)c1
Outgoing: 75.8% (inactive)

Incoming: Report measured growth; entry is O=C1/C(=C/C2=Cc3ccccc3OC2)SC(=S)N1c1ccc(F)cc1
Outgoing: 107% (inactive)
